Biological target: UFC1; also: test concentration or dose not given here
Assay: reporter assay of Huesken 2005
Details: siRNA
Oligonucleotides are written 5' to 3', each unit as a sugar letter and its base; * is a phosphorothioate linkage, no mark a phosphodiester; rarer units and linkages stand in square brackets, end groups in braces. Plain capitals give the bases only. d = 2'-deoxy (DNA); r = 2'-OH (RNA)
quantityMeasured: normalised inhibition (eCFP-eYFP dual reporter) (%)
Report the value in % with no unit label.

{"substance": "sense rCrUrGrGrGrUrCrCrArUrGrGrCrUrGrGrCrArGdTdT / antisense rCrUrGrCrCrArGrCrCrArUrGrGrArCrCrCrArGdCdC", "reportedMeasurement": 60.5}
{"substance": "sense rGrArCrArGrCrArArArGrArUrGrUrArCrArGrGdTdT / antisense rCrCrUrGrUrArCrArUrCrUrUrUrGrCrUrGrUrCdTdT", "reportedMeasurement": 50.1}

Note: attention shifts to another entry.
Fill in the blank: the reported normalised inhibition (eCFP-eYFP dual reporter) of sense rCrCrGrGrArCrCrCrCrGrArGrArUrCrGrUrGrAdTdT / antisense rUrCrArCrGrArUrCrUrCrGrGrGrGrUrCrCrGrGdCdG is ____.
56.6
